# Tested System: Cathepsin B (Homo sapiens)
pIC50: −log10 of the molar value.
Property Measured: pIC50

Solved cases below.
>>> measured_value("CCOC(=O)C=CC(CC1CCNC1=O)NC(=O)C(Cc1ccccc1)NC(=O)C(Cc1ccc(F)cc1)NC(=O)OC(C)(C)C (centres unmarked)")
4.40
>>> measured_value("C#CCOCCC(=O)NC(Cc1ccc(F)cc1)C(=O)NC(Cc1ccccc1)C(=O)NC(C=CC(=O)OCC)CC1CCNC1=O (centres unmarked)")
"< 4.30"
>>> measured_value("CCOC(=O)C=CC(CC1CCNC1=O)NC(=O)C(Cc1ccccc1)NC(=O)C(N)Cc1ccccc1 (centres unmarked)")
"< 4.30"

Request: Under Cathepsin B (Homo sapiens), report pIC50 for C#CCOCCC(=O)NC(Cc1ccccc1)C(=O)NC(Cc1ccccc1)C(=O)NC(C=CC(=O)OCC)CC1CCNC1=O (centres unmarked)
Result: < 4.30

Request: Lab note: Cathepsin B (Homo sapiens) assay, enter pIC50 for CCOC(=O)C=CC(CC1CCNC1=O)NC(=O)C(Cc1ccccc1)NC(=O)C(Cc1ccccc1)NC(=O)OC(C)(C)C (centres unmarked) here
Result: < 4.30

====

# Tested System: Cathepsin L (Homo sapiens)
# Sequence (P07711 114-333): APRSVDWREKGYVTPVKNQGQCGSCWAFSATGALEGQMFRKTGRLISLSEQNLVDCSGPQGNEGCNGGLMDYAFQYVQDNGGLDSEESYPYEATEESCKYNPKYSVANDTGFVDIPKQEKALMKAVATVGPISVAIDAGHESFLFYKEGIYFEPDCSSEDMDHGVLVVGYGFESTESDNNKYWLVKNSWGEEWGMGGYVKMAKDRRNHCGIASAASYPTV
Property Measured: pIC50
Scale: pIC50 equals -log10([C]), with [C] in mol/L.

// solved cases for pIC50 follow
>>> measured_value("CCOC(=O)C=CC(CC1CCNC1=O)NC(=O)C(Cc1ccccc1)NC(=O)C(N)Cc1ccccc1 (stereo not shown) [SM141]")
7.22
>>> measured_value("CCOC(=O)C=CC(CC1CCNC1=O)NC(=O)C(Cc1ccccc1)NC(=O)C(Cc1ccc(F)cc1)NC(=O)OC(C)(C)C (stereo not shown) [SM142]")
6.84
>>> measured_value("C#CCOCCC(=O)NC(Cc1ccc(F)cc1)C(=O)NC(Cc1ccccc1)C(=O)NC(C=CC(=O)OCC)CC1CCNC1=O (stereo not shown) [SM144]")
6.66

Request: Specify measured pIC50 for C#CCOCCC(=O)NC(Cc1ccccc1)C(=O)NC(Cc1ccccc1)C(=O)NC(C=CC(=O)OCC)CC1CCNC1=O (stereo not shown) [SM145] .
Result: 6.70

====

# Assay Protocol: Pharmacokinetics in BALB-6c mice
# Stated Conditions: PO
Documented Cmax across a set of molecules
Number only, in nM; omit the unit.

>>> measured_value("CCOC(=O)C=CC(CC1CCNC1=O)NC(=O)C(Cc1ccccc1)NC(=O)C(Cc1ccc(F)cc1)NC(=O)OC(C)(C)C (centres unmarked)")
600

Request: Answer with the recorded Cmax for the molecule listed here: CCOC(=O)C=CC(CC1CCNC1=O)NC(=O)C(Cc1ccccc1)NC(=O)C(N)Cc1ccccc1 (centres unmarked)
Result: 200

====

# Assay Protocol: Pharmacokinetics in BALB-6c mice
# Stated Conditions: IP
Property Measured: Cmax (nM)
Provide only the numeric value, understood in nM.

Request: Find the measured Cmax of CCOC(=O)C=CC(CC1CCNC1=O)NC(=O)C(Cc1ccccc1)NC(=O)C(N)Cc1ccccc1 (stereo not shown) and report it.
Result: 2700

====

The following compounds each carry a recorded pKi for UniProt P0DTD1.
Scale: negative log10 of molar concentration, which is what pKi denotes.

Use these answered entries as a reference point.
>>> measured_value("CCOC(=O)C=CC(CC1CCNC1=O)NC(=O)C(Cc1ccccc1)NC(=O)C(Cc1ccccc1)NC(=O)OC(C)(C)C (stereo not drawn)")
4.80
>>> measured_value("CCOC(=O)C=CC(CC1CCNC1=O)NC(=O)C(Cc1ccc(F)cc1)NC(=O)C(Cc1ccccc1)NC(=O)OC(C)(C)C (stereo not drawn)")
4.14

Request: Identify measured pKi corresponding to CCOC(=O)C=CC(CC1CCNC1=O)NC(=O)C(Cc1ccc(F)cc1)NC(=O)C(N)Cc1ccccc1 (stereo not drawn)
Result: 4.30

====

The listing below reports pKi for compounds tested on M^Pro (Severe acute respiratory syndrome coronavirus 2, UniProt P0DTD1).
Interpret pKi as the negative base-10 log of the concentration measured in mol/L.

>>> measured_value("CCOC(=O)C=CC(CC1CCNC1=O)NC(=O)C(Cc1ccccc1)NC(=O)C(Cc1ccc(F)cc1)NC(=O)OC(C)(C)C (stereo not shown)")
5.00
>>> measured_value("C#CCOCCC(=O)NC(Cc1ccccc1)C(=O)NC(Cc1ccccc1)C(=O)NC(C=CC(=O)OCC)CC1CCNC1=O (stereo not shown)")
5.28

Request: Write down measured pKi (M^Pro (Severe acute respiratory syndrome coronavirus 2, UniProt P0DTD1)) for this compound. CCOC(=O)C=CC(CC1CCNC1=O)NC(=O)C(Cc1ccccc1)NC(=O)C(N)Cc1ccccc1 (stereo not shown)
Result: 5.05

Request: Please look at C#CCOCCC(=O)NC(Cc1ccc(F)cc1)C(=O)NC(Cc1ccccc1)C(=O)NC(C=CC(=O)OCC)CC1CCNC1=O (stereo not shown) and tell me its recorded pKi on M^Pro (Severe acute respiratory syndrome coronavirus 2, UniProt P0DTD1).
Result: 5.35

====

# Assay Protocol: Pharmacokinetics in BALB-6c mice
# Stated Conditions: IV
Property Measured: Cmax (nM)
Express the result in nM but write the number alone.

>>> measured_value("CCOC(=O)C=CC(CC1CCNC1=O)NC(=O)C(Cc1ccccc1)NC(=O)C(Cc1ccc(F)cc1)NC(=O)OC(C)(C)C (centres unmarked) [SM142]")
400

Attention now turns to another entry.
Request: Give Cmax for the following compound: CCOC(=O)C=CC(CC1CCNC1=O)NC(=O)C(Cc1ccccc1)NC(=O)C(N)Cc1ccccc1 (centres unmarked) [SM141]
Result: 3900

These measurements were taken from paper PMC9662648.
